Cited source: paper PMC12286057

- TESTED_ON: partially purified ALR2 from rat lenses (Rattus norvegicus, UniProt P07943)
- Construct: Supernatant containing the partially purified ALR2 enzyme was used directly or stored at −80 °C for less than 24 h; from tissue; host or cells: eye lenses of Fischer-344 rats (homogenate supernatant after 40% ammonium sulfate precipitation)
- ASSAY_PROCEDURE: ALR2 enzymatic assay (NADPH consumption, DL-glyceraldehyde substrate)
- Assay type: biochemical
- SETTINGS: cut-off concentration of 10 μM
- Description: The ALR2 enzyme was isolated from rat lenses of the Fischer-344 series. […] ALR2 activity was assayed spectrophotometrically by determining NADPH consumption (ε340nm = 6300 M^−1 × cm^−1). […] The effects of the compounds on enzyme activity were determined by including the inhibitor in the reaction mixture at required concentrations. […] IC50 values were determined by least-squares regression analysis of the semi-logarithmic dose–inhibition curves. […]
MEASUREMENT_TYPE: inhibition at 10 µM (%)

O=S(=O)(c1ccc(O)c(F)c1)n1ccc2cc(Br)ccc21: 80.6
O=S(=O)(c1ccc(O)c(F)c1)n1ccc2cc(F)ccc21: 74.5

(A) Oc1ccc(-n2ccc3cc(Cl)ccc32)cc1F
(B) O=S(=O)(c1ccc(O)c(F)c1)n1ccc2cc(Cl)ccc21
Q: Record comparison, field inhibition at 10 µM: mark the lower of A and B . Answer format: the label of the selected item.
Ans: A
